# credit: ChEMBL document CHEMBL1772985

TARGET_OR_SYSTEM: D(4) dopamine receptor (Homo sapiens)
Sequence (P21917 whole entry): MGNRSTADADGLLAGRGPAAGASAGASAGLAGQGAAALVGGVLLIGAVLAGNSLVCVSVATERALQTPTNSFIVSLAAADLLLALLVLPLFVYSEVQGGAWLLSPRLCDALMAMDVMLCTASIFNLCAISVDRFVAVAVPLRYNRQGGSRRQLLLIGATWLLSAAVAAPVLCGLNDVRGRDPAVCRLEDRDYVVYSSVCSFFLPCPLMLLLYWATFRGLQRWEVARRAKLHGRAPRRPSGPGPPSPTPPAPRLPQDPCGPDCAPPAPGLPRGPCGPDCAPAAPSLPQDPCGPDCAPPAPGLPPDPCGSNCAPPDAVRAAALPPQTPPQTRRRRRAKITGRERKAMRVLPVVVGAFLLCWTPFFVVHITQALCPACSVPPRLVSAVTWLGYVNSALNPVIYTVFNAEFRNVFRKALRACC
pKi: −log10 of the molar value.
MEASURE: pKi

I: COc1ccccc1N1CCN(CC(F)CCNC(=O)c2cc3ccccc3[nH]2)CC1 (configuration not stated)
II: COc1ccccc1N1CCN(CC(F)CCNC(=O)c2ccc3c(c2)Cc2ccccc2-3)CC1 (configuration not stated)
(Q) Lab note: check whether I or II has the lower measured pKi. In your reply, give the label of the chosen option.
(A) II
(II: 5.50, I: 5.83)
